measured_target: Mesothelin (SwissProt reference Q13421-3) (Homo sapiens, UniProt Q13421 37-622)
protocol: cell-based or functional assay
attribute_measured: IC50 (nM), HT29 meso+ cells, MTT proliferation assay
Answers are plain numbers, in nM.

{"binder": "Example 379 (Diastereomer 1), conjugate of anti-mesothelin antibody MF-Ta (antibody, human IgG1, lambda, V domains shown, toxophore-linker on Lys NH, sites not given) VH: QVELVQSGAEVKKPGESLKISCKGSGYSFTSYWIGWVRQAPGKGLEWMGIIDPGDSRTRYSPSFQGQVTISADKSISTAYLQWSSLKASDTAMYYCARGQLYGGTYMDGWGQGTLVTVSS VL: DIALTQPASVSGSPGQSITISCTGTSSDIGGYNSVSWYQQHPGKAPKLMIYGVNNRPSGVSNRFSGSKSGNTASLTISGLQAEDEADYYCSSYDIESATPVFGGGTKLTVLG", "reported_value": 7}

Q: Supply measured IC50 (nM), HT29 meso+ cells, MTT proliferation assay of Example 377, conjugate of anti-mesothelin antibody MF-Ta (antibody, human IgG1, lambda, V domains shown, toxophore-linker on Cys sulfur, sites not given) VH: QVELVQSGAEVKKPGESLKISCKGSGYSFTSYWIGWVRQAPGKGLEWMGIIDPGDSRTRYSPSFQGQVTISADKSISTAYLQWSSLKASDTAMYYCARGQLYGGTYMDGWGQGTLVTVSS VL: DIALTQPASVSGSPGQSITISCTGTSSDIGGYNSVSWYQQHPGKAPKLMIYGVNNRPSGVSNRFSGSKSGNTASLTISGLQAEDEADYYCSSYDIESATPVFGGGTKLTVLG in your reply.
Result: 1.6
